System: OVCAR-4 ovarian
Experiment: NCI tumour cell line growth inhibition, 48 h
Assignment: determine reported TGI for the given molecules.
Entry rule: numbers only, all in µM.

Given the molecule O=c1cc(-c2ccccc2)oc2cc(Oc3nnnn3-c3ccccc3)ccc12 , write its reported TGI.
70.9

Given the molecule O=c1c2cc(F)ccc2sc2c(N3CCNCC3)nc3ccccc3c12 , write its reported TGI.
3.46

Given the molecule Fc1cnc(NC2CC2)nc1-c1cnc2ccc(N3CCOCC3)cn12 , write its reported TGI.
3.06

Given the molecule O=C1C=CC(=O)N1C1CCCCCCCCCCC1 , write its reported TGI.
24.2

Given the molecule Cc1ccc([N+](=O)[O-])cc1S(=O)(=O)Nc1ccc(C(=O)/C=C/c2cccs2)cc1 , write its reported TGI.
54.3

Given the molecule O=[N+]([O-])c1ccccc1S(=O)(=O)c1cc(O)cc2c1NCCC2 , write its reported TGI.
29.3

Given the molecule [C-]#[N+][C@@H]1C2[C@H](CC[C@@]1(C)O)C(=C)CC[C@@H]2[C@@]1(C)CC[C@H](Cl)C(C)(C)O1 (stereo not given in full) , write its reported TGI.
33.7
